From: patent US7781454B2

Target: mutant HIV reverse transcriptase (Y181C mutation) (Human immunodeficiency virus type 1 group M subtype B, UniProt P04585, Y768C)
Construct: against mutant HIV reverse transcriptase; made in house
Experiment: ECL assay for inhibition of mutant HIV reverse transcriptase (Y181C)
Type: biochemical
Details: Y181C mutant RT; read-out: ECL Assay (Y181C) IC50
measured_parameter: IC50 (nM)
Numbers only, in nM.

N#Cc1cc(Cl)cc(Oc2c(Cl)ccc3c2nnn3Cc2n[nH]c3nc(N)ccc23)c1Cl [Example 22] : 0.79
N#Cc1cc(Cl)cc(Oc2c(Cl)ccc3c2nnn3CC(=O)N2CCCC(C(N)=O)C2)c1 (centres unmarked) [Example 16] : 790
N#Cc1cc(Cl)cc(Oc2c(Cl)ccc3c2nnn3Cc2n[nH]c3ncccc23)c1Cl [Example 19] : 0.77
N#Cc1cc(Cl)cc(Oc2c(Cl)ccc3c2nnn3CC(=O)Nc2ccncc2C(F)(F)F)c1 [Example 13] : 2.4

Each compound below has a recorded value; state its IC50.
1. O=Cc1cc(Cl)cc(Oc2c(Cl)ccc3c2nnn3Cc2n[nH]c3ncccc23)c1 [Example 18]
2. N#Cc1cc(Cl)cc(Oc2c(Cl)ccc3c2CCCN3Cc2n[nH]c3ncccc23)c1 [Example 27]
3. CN(Cc1ccccc1Cl)C(=O)Cn1nnc2c(Oc3cc(Cl)cc(C#N)c3)c(Cl)ccc21 [Example 9]
4. N#Cc1cc(Cl)cc(Oc2c(Cl)ccc3c2cnn3Cc2n[nH]c3c2ccc[n+]3[O-])c1 [Example 5]
5. N#Cc1cc(Cl)cc(Oc2c(Cl)ccc3c2nnn3Cc2nnc(-c3ccccc3)o2)c1 [Example 23]

1: 3.7; 2: 160; 3: 137; 4: 1.8; 5: 3.4

Each compound below has a recorded value; state its IC50.
1. N#Cc1cc(Cl)cc(Oc2c(Cl)ccc3c2nnn3CC(=O)OCc2ccccc2)c1 [Example 15]
2. N#Cc1cc(Cl)cc(Oc2c(Cl)ccc3c2nnn3Cc2n[nH]c3ncccc23)c1 [Example 4]

1: 1.5; 2: 0.44
